# Assayed System: T1, CD8α-cHis fusion protein (UniProt P01732 22-182)
# T1 construct: not shown: C-terminal His tag
# T1 sequence (P01732 22-182): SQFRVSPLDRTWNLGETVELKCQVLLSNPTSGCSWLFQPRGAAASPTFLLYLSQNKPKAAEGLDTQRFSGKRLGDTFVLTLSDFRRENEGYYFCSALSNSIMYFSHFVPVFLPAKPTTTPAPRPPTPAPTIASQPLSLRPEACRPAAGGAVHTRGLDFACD
# Test Details: BLI (ForteBio Octet), biotinylated antibody on SA sensor, CD8α-chis 6.25-100 nM
# Protocol: The anti-CD8α single domain antibody-biontin was fixed on an SA biological sensor. Then, CD8α-chis with a concentration of 6.25-100 nM bound to a nano antibody and then dissociated. The binding dynamic variables of four antibodies C37, C42, C46 and S5 were evaluated and determined by using Octet Data Analysis version 9.0, including Kon, Koff and Kd.
Listed here are binders together with their documented pKd.
pKd here is simply -log10 of the concentration when that concentration is written in mol/L.

Consider the reported pKd for these binders:
Task item: Tell me the measured pKd of C37-cHis antibody (VHH, HEK293 construct; an E. coli preparation is also described; Biotinylated for the ForteBio assay; also called C37-his; SNA006a) VHH: QLQLVESGGGLVQAGGSLRLSCAASGLTFEDYAIGWFRQAPGKEREGISCIRIYDGNTYSAESVKGRFTISSDNAKNQVYLQINTLKPEDTAVYYCAAGSYYSCSVYPDYDMDYWGKGTLVTVSS , please.
Reply: 9.19

Task item: Ok, now C42-cHis antibody (VHH, HEK293 construct; an E. coli preparation is also described; Biotinylated for the ForteBio assay; also called SNA006b; SNA006-b) VHH: QVQLVESGGGLVQAGGSLRLSCAASGLTFEDYAIGWFRQAPGKEREGISCIRIYDGNTYSAESVKGRFTISSDNAKNQVYLQINTLKPEDTAVYYCAAGSYYSCSVYPDYDMDYWGKGTLVTVSS
Reply: 9.14

Task item: Ok, now S5-cHis antibody (VHH, HEK293 construct; an E. coli preparation is also described; Biotinylated for the ForteBio assay; also called SNA006d; SNA006-d) VHH: QVQLVESGGGLVQAGGSLRVSCAASGGTFSSTAMGWFRQAPGKEREFVAAISWSGGYTYYADSVRGRFTISRDNALNTVSLQMNSLKPEDTAVYYCAADISGLDTVAAGIFTEPNIDYWGKGTLVTVSS
Reply: 8.54

Moving on to another binder below.
Task item: Tell me the measured pKd of C46-cHis antibody (VHH, HEK293 construct; an E. coli preparation is also described; Biotinylated for the ForteBio assay; also called SNA006c; SNA006-c) VHH: QVQLVESGGGLVQAGGSLRLSCAASGVTFDDLAIGWFRQVPGKGREGVSTIGTSDGTAYYADSVKGRFTISSDNAKNTVYLQMNSLKPEDTAVYYCAVDLDYGLGSLLPMGYDYWGQGTQVTVSS , please.
Reply: 8.97
